Biological target: IgE-Tb / FcεRIα-Y131A-AF488 (Homo sapiens)
Assay: IgE-Tb / FcεRIα-Y131A-AF488 FRET assay (protocol for examples 1 to 233)
Conditions: examples 1 to 233: 5 nM IgE-Tb, 25 nM FcεRIα-Y131A-AF488, incubated 2 hours at room temperature; read-out: Y131A FRET IC50 range
MEASURED_PARAMETER: IC50

MOLECULE	MEASURED_PARAMETER	ASSAY_RESULT
CC(O)CNS(=O)(=O)c1c(NC(=O)C2CC2)sc2c1CCCC2 (centres unmarked)	IC50	< 1000 nM

Incoming: Quick check: IC50 of CCCCS(=N)(=O)c1c(NC(=O)C2CC2)sc2c1CCCC2 (centres unmarked) ?
Outgoing: 1000 to 10000 nM

Incoming: IC50 for `CC(=O)Nc1cncn1[C@H]1CCc2sc(NC(=O)C3CC3)c(C(=O)NCC3CC3)c2C1` ?
Outgoing: < 1000 nM

Incoming: Record request: IC50 value, item O=C(NCC1CC1)c1c(NC(=O)C2CC2)sc2c1CC(C(=O)O)CC2 (centres unmarked)
Outgoing: 10000 to 50000 nM

Incoming: State the recorded IC50 for this entry: Cc1ccc(NC(=N[N+](=O)[O-])NC2CCc3sc(NC(=O)C4CC4)c(C(=O)NCC4CC4)c3C2)cc1 (centres unmarked)
Outgoing: < 1000 nM

Incoming: Which IC50 is reported for this molecule? C[S+]([O-])NC1CCc2sc(NC(=O)C3CC3)c(C(=O)NCC3CC3)c2C1 (mixture of isomers)
Outgoing: 1000 to 10000 nM

Incoming: Recorded IC50 of CCc1c(N[C@@H]2CCc3sc(NC(=O)C4CC4)c(C(=O)NCC4CC4)c3C2)c(=O)c1=O (single isomer, unassigned) , please.
Outgoing: < 1000 nM

Incoming: Could you tell me which IC50 is on file for Nc1noc(=O)n1C1CCc2sc(NC(=O)C3CC3)c(C(=O)NCC3CC3)c2C1 (centres unmarked) ?
Outgoing: < 1000 nM

---

Biological target: IgE-Tb / sFcεRIα-Y131A-AF488 (Homo sapiens, UniProt P01854, N146Q/N252Q)
Sequence (P01854 whole entry N146Q/N252Q): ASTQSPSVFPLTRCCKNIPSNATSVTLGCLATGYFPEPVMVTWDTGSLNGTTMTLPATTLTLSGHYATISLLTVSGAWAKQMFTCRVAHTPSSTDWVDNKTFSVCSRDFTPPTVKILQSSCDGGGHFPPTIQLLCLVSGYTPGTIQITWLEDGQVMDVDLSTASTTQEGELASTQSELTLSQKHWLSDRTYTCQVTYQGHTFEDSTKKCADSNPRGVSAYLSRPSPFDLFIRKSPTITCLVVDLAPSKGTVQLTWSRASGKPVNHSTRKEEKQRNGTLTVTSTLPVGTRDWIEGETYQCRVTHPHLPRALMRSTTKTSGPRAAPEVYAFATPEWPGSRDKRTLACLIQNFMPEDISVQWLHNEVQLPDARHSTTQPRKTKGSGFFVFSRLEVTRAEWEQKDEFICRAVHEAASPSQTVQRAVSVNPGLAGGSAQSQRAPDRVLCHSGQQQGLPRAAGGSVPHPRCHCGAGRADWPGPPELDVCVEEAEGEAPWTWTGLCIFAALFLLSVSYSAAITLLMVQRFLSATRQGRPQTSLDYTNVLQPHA
Experiment: IgE-Tb / sFcεRIα-Y131A-AF488 FRET assay (protocol for examples 234 to 501)
Details: examples 234 to 501: compound with IgE-Tb 30 minutes before sFcεRIα-Y131A-AF488, incubated 18 hours at room temperature; read-out: Y131A FRET IC50 range
pIC50: −log10 of the molar value.
Measured pIC50 accompanies every entry in the list below.

Use these answered entries as a reference point.
MOLECULE	pIC50
Cn1nc(OC(F)F)cc1Nc1nncn1[C@H]1CCc2sc(NC(=O)C3CC3(F)F)c(C(=O)N[C@H]3C[C@H](F)C3)c2C1 (single isomer, unassigned)	> 6.00
COc1cc(Nc2nncn2[C@H]2CCc3sc(NC(=O)C4CC4)c(C(=O)NCC4CC4)c3C2)n(C)n1	> 6.00

Please find the next molecule below.
Incoming: State the recorded pIC50 for this entry: `Cc1nocc1Nc1nncn1[C@H]1CCc2sc(NC(=O)C3CC3)c(C(=O)NCC3CC3)c2C1`
Outgoing: > 6.00

---

Biological target: IgE-Tb / FcεRIα-Y131A-AF488 (Homo sapiens, UniProt P01854)
Sequence (P01854 1-427 limits assumed, stated change not applied): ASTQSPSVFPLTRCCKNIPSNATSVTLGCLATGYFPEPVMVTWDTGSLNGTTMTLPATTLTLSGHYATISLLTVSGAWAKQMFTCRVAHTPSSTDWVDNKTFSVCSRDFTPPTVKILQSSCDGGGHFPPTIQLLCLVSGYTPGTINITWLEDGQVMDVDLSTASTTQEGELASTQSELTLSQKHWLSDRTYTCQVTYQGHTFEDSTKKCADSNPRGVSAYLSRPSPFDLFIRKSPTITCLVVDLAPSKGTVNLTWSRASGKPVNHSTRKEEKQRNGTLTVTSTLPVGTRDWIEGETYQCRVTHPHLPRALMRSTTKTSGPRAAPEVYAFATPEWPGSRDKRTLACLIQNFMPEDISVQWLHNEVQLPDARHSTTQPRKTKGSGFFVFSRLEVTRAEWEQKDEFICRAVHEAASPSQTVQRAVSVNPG
Experiment: IgE-Tb / FcεRIα-Y131A-AF488 FRET assay (protocol for examples 1 to 233)
Type: binding
Conditions: examples 1 to 233: 5 nM IgE-Tb, 25 nM FcεRIα-Y131A-AF488, incubated 2 hours at room temperature; read-out: Y131A FRET IC50 range
MEASURED_PARAMETER: IC50

COMPOUND	IC50
O=C(Nc1sc2c(c1S(=O)(=O)NC1CC(F)C1)CCCC2)C1CC1 (centres unmarked) [Example 21]	< 1 µM
O=C(NCC1CC1)c1c(NC(=O)C2CC2)sc2c1CC(Nc1cc(=O)cc[nH]1)CC2 (centres unmarked) [Example 158]	< 1 µM
Cc1nnc(-c2ccc(N[C@H]3CCc4sc(NC(=O)C5CC5)c(C(=O)NCC5CC5)c4C3)cn2)o1 [Example 159]	< 1 µM
Cc1cc(Nc2nncn2C2CCc3sc(NC(=O)C4CC4)c(C(=O)NC4CC(F)(F)C4)c3C2)n(C)n1 (centres unmarked) [Example 185]	< 1 µM
O=C(NCC1CC1)c1c(NC(=O)C2CC2)sc2c1CC(Nc1ncccn1)CC2 (centres unmarked) [Example 191]	< 1 µM

Incoming: // IC50 lookup, key: NCC1(O)CCc2sc(NC(=O)C3CC3)c(C(=O)NCC3CC3)c2C1 (centres unmarked) [Example 69]
Outgoing: 10 to 50 µM

Incoming: Which IC50 is reported for this compound? O=C(NCC1CC1)c1c(NC(=O)C2CC2)sc2c1CC(C(=O)N1CCCC1)CC2 (centres unmarked) [Example 73]
Outgoing: 1 to 10 µM

Incoming: // IC50 lookup, key: CCNC(=S)NC1CCc2sc(NC(=O)C3CC3)c(C(=O)NCC3CC3)c2C1 (centres unmarked) [Example 142]
Outgoing: < 1 µM
